Tested on: MS2 coat protein
Assay: apparent KD of MS2 coat protein; designed switch direction (-1 OFF switch, 1 ON switch): -1; higher = weaker reporter binding
Conditions: input ligand: FMN 200 uM
Observation Type: apparent KD of MS2 coat protein (nM)
Kindly provide the numeric value in nM only, without the unit symbol.

>  <Record Sequence>
AGCUGUGGCCGAGGAUAUUCAGCCUUAAAUACCGACGUAUAGUCGGACAUGAGGAUCACCCAUGUGGAGAAGGCGGUCUCAGCA [Eli eng2 - 046] (Eterna round: R96, puzzle: Exclusion NG 2)

>  <Unit Tag>
nM

>  <Reported>
76.4

$$$$
>  <Record Sequence>
CUAAAUCAUGUAGGAUAUGCGUGGCAAAGCUAUGCAGAAGGACAUGAGGAUCACCCAUGUCAUUCCGUCUGCGAACAGACGGGA [Mat - Exclusion NG 1 - Mod of JL - D50] (Eterna round: R96, puzzle: Exclusion NG 1)

>  <Unit Tag>
nM

>  <Reported>
161

$$$$
>  <Record Sequence>
UCUCCUCCCGUAAGGAUAUUCAUGCGUACCACGCGGAAGAAGGUACAUGAGGAUCACCCAUGUAAUUAACACCG [BmEX4 B.9] (Eterna round: R97, puzzle: Brourd's mod of Exclusion 4)

>  <Unit Tag>
nM

>  <Reported>
30.7

$$$$

Ask | So what apparent KD of MS2 coat protein did ACAUGAGGAUCACCCAUGUCCGGCUGGUCUGUUUCGGCUGUCGAGGAUAUAGUUCGGUGUUCGCGCUAGAAGGCGGGAGCUGGC [Aenatbe mod 59] (Eterna round: R96, puzzle: Exclusion NG 3) get with MS2 coat protein?
Reply | 111

Ask | Tell me reported apparent KD of MS2 coat protein for GCUCAGAUGACAGGAUAUCACGCCUGGCAGAUGGGCGACAUGAGGAUCACCCAUGUCCAGCACGAUGAGAAGGGUUAUCGGGCG [Ririorti] (Eterna round: R96, puzzle: Exclusion NG 2) , tested with MS2 coat protein.
Reply | 195

Ask | Notebook: pull reported apparent KD of MS2 coat protein for MS2 coat protein, entry CAUUAUUAUCGAGGAUAUCCUAUUGUAAUUCUGGGAGAAGGCGGACUCAACAUGAGGAUCACCCAUGUAAGACGGGUGCUAGAG [Ex NG1 #24] (Eterna round: R96, puzzle: Exclusion NG 1)
Reply | 306

Ask | Recorded apparent KD of MS2 coat protein for UCGUGUGCGUAGGAUAUCGGUAUGAAGGGAGAAUGAGAAGGGCGGACAUGAGGAUCACCCAUGUGUGCCGGAAA [EX6 B.4] (Eterna round: R97, puzzle: Exclusion 6) with MS2 coat protein, please?
Reply | 43.3

Ask | Missing value: apparent KD of MS2 coat protein, MS2 coat protein, entry CUCCUGUGAGGAUAUGUAGGCCGCCCGGUCAGCCGAGCGAGACAGAAGGCACAUGAGGAUCACCCAUGUGACUC [EX4 B.13] (Eterna round: R97, puzzle: Exclusion 4) . Fill in?
Reply | 42.2

###

# Lookup of reported apparent KD of MS2 coat protein keyed by entry
Test system: MS2 coat protein
Test: apparent KD of MS2 coat protein; designed switch direction (-1 OFF switch, 1 ON switch): -1; higher = weaker reporter binding
Settings: input ligand: none
Put your answer as a value accompanied by its unit after it.

>  <Record Sequence>
GGUCAGAUGGUAGGAUAUCCAUAUCGAGUGACCUUUUCAUAACAUGAGGAUCACCCAUGUCGGUGGGAGAAGGGCCGUACGGCG [salish99_ExNG02_R04_017] (Eterna round: R96, puzzle: Exclusion NG 2)

>  <Reported>
112 nM

$$$$
>  <Record Sequence>
UCAAGACAUGAGGAUCACCCAUGUCAGGAUAUCUAGGUUCGCUAUUUCAUUGUUAACGAGAGAAGGGACAUGAU [EX1 C.13] (Eterna round: R97, puzzle: Exclusion 1)

>  <Reported>
18 nM

$$$$

Ask | Recorded apparent KD of MS2 coat protein for AGUGUGUGGCAGGAUAUUCUAAUCGUGAGUCGGGAAGAAGGGUCUACAUGAGGAUCACCCAUGUGAGCGGUUGA [Ex6 #45] (Eterna round: R97, puzzle: Exclusion 6) , please?
Reply | 245 nM

###

apparent KD of K4 kissing-loop reporter: recorded values
Tested on: K4 kissing-loop RNA reporter
Assay: apparent KD of K4 kissing-loop reporter; higher = weaker reporter binding
Settings: Eterna round: R107; input ligand: arginine 13.2 mM
# value in nM; strip the unit string

Some solved cases for reference:
>  <Record Sequence>
GCUAUGGUAGGAAGGAGCGCUUGUUCGGUCAUAUGAGUGAUGUUCGAGACUGAGCAUUUAUAGCAGGUAGGUCGCCUACUAUAGC [Arginine B K4 10]

>  <Reported>
179

$$$$
>  <Record Sequence>
CAUGGACUUCCAGUGUAUCCAUGACUGGAUACCAGUCAGGAAACUGACCCUUGGCAGCCAGAACUGGAAGUGAUGUUUCCAGUAA [Design8]

>  <Reported>
214

$$$$

Here's the next entry for you.
Ask | Requested read-out: apparent KD of K4 kissing-loop reporter. Entry: UGAUAGGACAGAAGGAGCGGAAGCUAGUCAAAGACUAGCAAACGUUAAACAGGAGUGAUGUUCCAGGUAGGUCGCUGUCCUAUCU [ArgBX 23 #SwitchBubble #StaticStem]
Reply | 115

###

Test system: K4 kissing-loop RNA reporter;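 note: bound reporter read as fluorescence of individual clusters on recovered sequencing chips by microscopy, with normalized cluster intensities fitted with a binding model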
Experiment: apparent KD of K4 kissing-loop reporter; higher = weaker reporter binding
Conditions: Eterna round: R107; input ligand: FMN 200 uM
Tag: Condition met if measured apparent KD of K4 kissing-loop reporter is not below 200 nM, Condition not met if it is.

Known results for sequences:
>  <Record Sequence>
GGUGUUGUUUGUGCUGUUUUCCUCGUUUCUCGAGGACCGGUACGGCCGCCACUCGAGUGAUGUUUGGGUAGCGAUCCUUGUUAGU [Bdazzled - #6 Exc. Tryptophan A]

>  <Discrete Label>
Condition met

$$$$
>  <Record Sequence>
UUCUACGAGUGAUGUUCGUAGUGUAAUCGCUAGGAUAUCGUUUUUUCGAGAAGGAGCGUCGAAGUGAUACGAAAGUAUCGCUUCG [FMN A 13]

>  <Discrete Label>
Condition not met

$$$$
>  <Record Sequence>
UGAUAGGACAGAAGGAGCGAGGAGUGAUGUUCCUCAAAAGGUCUAGCAAAGCUAGACCCUCCUCAGGUAGGUCGCUGUCCUAUCU [ArgBX 1 #Palindromic #SwitchBubble #StaticStem]

>  <Discrete Label>
Condition not met

$$$$

Ask | Kindly determine if apparent KD of K4 kissing-loop reporter recorded for UUUGAAAUGACUGAUACCAGUGAAAAUAUAUGUAGUGAUGUUAUAUACUAAUUUAAUAAGCGCCCUUGGCAGCAGUAUGAAUUAU [AstrosExc-theB#16] is above or exactly 200 nM.
Reply | Condition met

Ask | Hi, just wondering whether GUGCGCGCGGCGGCCGCCACUCGCAUGAGAGUGAUGUUCUUGCCCGGGCCGCAAGGCCCGGGUGUGAGGACCGGGCCGGGCUGCG [#2 Same State - Tryptophan B Attempt #26 (HarryS)] shows apparent KD of K4 kissing-loop reporter of 200 nM or higher.
Reply | Condition not met

Ask | Confirm if apparent KD of K4 kissing-loop reporter reported for the sequence CGCAGUGAUGUUGCGAGUUUAUUCAGGGAAGGAGCGCCACAGAUGGCAGGUAGGUCGCCCACGCAGUGAUGUUGUGUAUUCGGGU [Exclusion Arginine A GF 3] is 200 nM or above.
Reply | Condition not met

Ask | Kindly determine if apparent KD of K4 kissing-loop reporter recorded for CCAGGACGAUGAGGAGGAUGAAUUACUGAAGGAGCGCAUAUGGUUGCAGGUAGGUCGCGGUGAACAAGUAUAGUGAUGUUAUACC [SSArgA.T] is above or exactly 200 nM.
Reply | Condition met

Ask | Assess whether reported apparent KD of K4 kissing-loop reporter for ACGUAGUACGUAGGAUAUCAGAGAUCAGUUAGUGAGAUCGAGUGAUGUUCGAUCAUGUGUUCAGUUUGAGAAGGAUGUAGUAGGA [KL-SSFMN-B5] sits at 200 nM or higher.
Reply | Condition met

Ask | Has AGCGAUGUUUUCUCUAAGAGUGAUGUUUUUCGAGGACCGGUACGGCCGCCACUCGAAUAAAGUGUGCGGUAGUGAGCUGUUGACA [#18 K4 Tryptophan A Exclusion] a recorded apparent KD of K4 kissing-loop reporter greater than or equal to 200 nM?
Reply | Condition met

Ask | Record AAAUUUUCGAGUGAUGUUCGAAUAAUUUCAGAGGAUAUGCUUAAAAGCAGAAGGCUGUAUUACUAUUUGUUAUUAAAUUUUAUAA [JR_ExcFMNA_Sub001] ; criterion: apparent KD of K4 kissing-loop reporter no lower than 200 nM. Met?
Reply | Condition not met

Ask | Form field: apparent KD of K4 kissing-loop reporter at least 200 nM? Entry: GACUCAUGUAGAAGGAGCGUCAGAAGCUACAGACAUGAGUGAUGUUCAUGUUAGUUGAUCUGACAGGUAGGUCGCUACAGCAGGA [KL-SSArg B14 #analogue]
Reply | Condition not met
